# Species on record: Homo sapiens
# assay-notes: Selectivity index, ratio of IC50 for recombinant TRIM24 (unknown origin) to IC50 for recombinant TRIM33 PHD bromodomain (unknown origin)
parameter: Ratio IC50
Numbers only.

Please review the entries below; each comes with its answer.
# given-smiles, parameter, result
data = [
    ("N#Cc1ccc(CNc2c(-c3ccc4nccn4c3)nc3ccc(Br)cn23)cc1", "Ratio IC50", 6.16),
    ("COC(=O)c1ccc2nc(-c3nc[nH]c3C)c(Nc3ccc(OC)cc3)n2c1", "Ratio IC50", 3.99),
    ("Cc1[nH]cnc1-c1nc2ccccn2c1NCc1ccc(C#N)cc1", "Ratio IC50", 2.61),
    ("CCCOc1ccn2c(C(C)=O)cc(-c3nc4ccccn4c3NCCc3ccc(OC)c(OC)c3)c2c1", "Ratio IC50", 17.1),
    ("CCCOc1ccn2c(C(C)=O)cc(-c3nc4ccc(C(=O)OC)cn4c3NCCN3CCOCC3)c2c1", "Ratio IC50", 10.9),
]

Hi there! I need Ratio IC50 for each item below, if you can.
1. CCCOc1ccn2c(C(C)=O)cc(-c3nc4ccccn4c3NC3CCCCC3)c2c1
2. COCCNc1c(-c2c[nH]c(C)n2)nc2ccccn12
3. COCCNc1c(-c2nc[nH]c2C)nc2ccccn12
4. CCCOc1ccn2c(C(C)=O)cc(-c3nc4ccccn4c3NCCOC)c2c1

16.2
8.16
2.17
9.36

// Input: COc1ccc(Nc2c(-c3nc[nH]c3C)nc3ccc(Br)cn23)cc1 . Output its Ratio IC50 only. 189

###

# Species: Homo sapiens
# assay-notes: Selectivity index, ratio of IC50 for recombinant TRIM24 (unknown origin) to IC50 for recombinant TRIM33 PHD bromodomain (unknown origin)
# note: exactly 20 is not below, so it is not met; use met for Ratio IC50 strictly under it

// known answers, use as guide
# given-smiles, category
rows = [
    ("CCCOc1ccn2c(C(C)=O)cc(-c3nc4ccccn4c3Nc3ccc(OC)cc3)c2c1", "met"),
    ("COC(=O)c1ccc2nc(-c3ccc4nccn4c3)c(NCCc3ccc(OC)c(OC)c3)n2c1", "not met"),
    ("COc1ccc(Nc2c(-c3c[nH]c(C)n3)nc3ccccn23)cc1", "not met"),
]

Answer whether the compound COc1ccc(Nc2c(-c3nc[nH]c3C)nc3ccccn23)cc1 has Ratio IC50 strictly less than 20 met

Confirm or reject: Ratio IC50 of COCCNc1c(-c2nc[nH]c2C)nc2cnccn12 lies strictly below 20 not met

Please determine if COC(=O)c1ccc2nc(-c3nc[nH]c3C)c(NCc3ccc(C#N)cc3)n2c1 is below 20 in terms of Ratio IC50. met

Please indicate whether the reported Ratio IC50 of COC(=O)c1ccc2nc(-c3c[nH]c(C)n3)c(NCCc3ccc(OC)c(OC)c3)n2c1 is strictly below 20. not met

###

# experimental-target: E3 ubiquitin-protein ligase TRIM33 (Homo sapiens)
# Sequence (Q9UPN9 whole entry): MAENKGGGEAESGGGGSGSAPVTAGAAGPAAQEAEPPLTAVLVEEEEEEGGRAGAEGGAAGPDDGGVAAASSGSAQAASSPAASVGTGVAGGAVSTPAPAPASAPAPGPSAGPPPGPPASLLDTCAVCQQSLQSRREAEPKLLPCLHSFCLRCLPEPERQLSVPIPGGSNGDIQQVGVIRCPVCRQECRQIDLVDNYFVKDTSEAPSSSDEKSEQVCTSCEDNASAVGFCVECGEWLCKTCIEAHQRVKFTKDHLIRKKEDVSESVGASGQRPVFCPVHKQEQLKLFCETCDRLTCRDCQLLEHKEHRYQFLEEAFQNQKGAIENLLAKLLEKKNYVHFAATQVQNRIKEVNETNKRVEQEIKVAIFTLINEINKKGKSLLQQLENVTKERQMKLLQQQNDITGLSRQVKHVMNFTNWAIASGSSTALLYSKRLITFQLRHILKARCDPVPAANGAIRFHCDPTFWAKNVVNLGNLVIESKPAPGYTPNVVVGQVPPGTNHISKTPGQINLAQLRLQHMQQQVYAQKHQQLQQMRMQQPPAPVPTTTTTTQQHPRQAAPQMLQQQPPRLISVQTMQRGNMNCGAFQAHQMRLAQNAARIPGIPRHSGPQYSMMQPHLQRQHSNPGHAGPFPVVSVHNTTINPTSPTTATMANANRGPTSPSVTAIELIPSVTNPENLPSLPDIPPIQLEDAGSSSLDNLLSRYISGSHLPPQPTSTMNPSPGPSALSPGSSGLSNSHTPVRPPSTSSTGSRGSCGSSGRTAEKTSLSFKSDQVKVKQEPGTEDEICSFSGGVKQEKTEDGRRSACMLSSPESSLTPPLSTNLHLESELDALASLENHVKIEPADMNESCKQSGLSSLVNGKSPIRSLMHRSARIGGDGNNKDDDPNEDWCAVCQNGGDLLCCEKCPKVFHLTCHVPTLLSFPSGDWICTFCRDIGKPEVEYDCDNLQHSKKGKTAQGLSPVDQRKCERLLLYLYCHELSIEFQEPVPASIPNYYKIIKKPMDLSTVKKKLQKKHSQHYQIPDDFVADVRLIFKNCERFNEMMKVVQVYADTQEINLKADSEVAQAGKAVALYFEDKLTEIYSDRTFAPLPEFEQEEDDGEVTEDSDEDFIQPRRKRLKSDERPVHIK
# assay-notes: Inhibition of recombinant TRIM33 PHD bromodomain (unknown origin) using biotinylated H3 peptide (H3K9me3K18ac) by AlphaScreen assay
parameter: log10 IC50 (log10 of the value in µM)
// stored as log10 of IC50 expressed in µM

# given-smiles, result
measured = [
    ("COCCNc1c(-c2c[nH]c(C)n2)nc2ccccn12", 1.24),
    ("COC(=O)c1ccc2nc(-c3ccc4nccn4c3)c(NC3CCCCC3)n2c1", 1.63),
]

Quick request: log10 IC50 for each listed item, please.
1. COC(=O)c1ccc2nc(-c3ccc4nccn4c3)c(NCCN3CCOCC3)n2c1
2. Cc1nc(-c2nc3ccc(Br)cn3c2NCc2ccc(C#N)cc2)c[nH]1

[2.48, 1.05]

Field: log10 IC50. Fill in for each record below.
1. Cc1nc(-c2nc3cnccn3c2NCc2ccc(C#N)cc2)c[nH]1
2. c1ccn2c(NC3CCCCC3)c(-c3ccc4nccn4c3)nc2c1

2.32
1.14
